Target: Avi-tagged FL MALT-1 (Homo sapiens (Human))
Assay: MALT-1 Fluorogenic Peptide Cleavage Assay (MALT1 inhibition assay)
Format: biochemical
Settings: Ac-LRSR-AMC peptide substrate, 30 min pre-incubation, 90 min reaction at room temperature
Experimental: Inhibition of MALT1 activity by the presence of small molecules was evaluated using MALT-1 Fluorogenic Peptide Cleavage Assay. The assay utilizes a quenched AMC-labelled peptide that contains the MALT-1 recognition sequence and cleavage site (LRSR). MALT-1 mediated cleavage of the peptide relieves the quenching and leads to an increase in fluorescence at excitation (342 nm) and emission (441 nm). […]
pIC50: −log10 of the molar value.
endpoint_name: pIC50

These solved cases illustrate the format of a correct answer.
>  <molecule>
CC(=O)N1CC(c2ccnc(-n3cc(S(=O)(=O)Nc4cccc5cnn(C)c45)cn3)c2)C1

>  <pIC50>
< 5.60

$$$$
>  <molecule>
Cn1ncc2cccc(NS(=O)(=O)c3cnn(-c4cc(C(F)(F)F)c(F)cn4)c3)c21

>  <pIC50>
6.00 to 6.40

$$$$
>  <molecule>
CCc1ccc2cnn(C)c2c1NS(=O)(=O)c1cnn(-c2cc(C(F)(F)F)ncn2)c1

>  <pIC50>
≥ 6.40

$$$$

Challenge: Bench note: what pIC50 did C[C@@H]1CN(c2ccnc(-n3cc(S(=O)(=O)Nc4cccc5cnn(C)c45)cn3)c2)C(=O)N1C show?
Response given: < 5.60

Challenge: Which measured pIC50 value corresponds to CCc1ccc2[nH]nc(C)c2c1N(C)S(=O)(=O)c1cnn(-c2ccnc(C(F)(F)F)c2)c1 ?
Response given: ≥ 6.40

Challenge: Looking for the measured pIC50 of COc1ncc2cnn(C)c2c1NS(=O)(=O)c1cnn(-c2cc(C(C)(C)O)ccn2)c1 , can you help?
Response given: 6.00 to 6.40

Challenge: So what does the record say about pIC50 for COc1ccc2cnn(C)c2c1NS(=O)(=O)c1cnn(-c2cc(C3(C#N)CC3)ccn2)c1 ?
Response given: 6.00 to 6.40

Challenge: What value of measured pIC50 is listed for COc1ccc2cnn(C)c2c1NS(=O)(=O)c1cnn(-c2cc(N3CC(F)C3)ccn2)c1 ?
Response given: 5.60 to 6.00

---

System: NF-kB reporter in Jurkat cells
Test: NF-kB reporter assay in Jurkat cells stimulated with aCD3/aCD28/PMA
Type: cell-based
Conditions: Homo sapiens; Jurkat cells, 1 hr compound pre-incubation, aCD3/aCD28/PMA stimulation 4 hr, One-Glo readout; read-out: NF-kB Reporter Assay IC50
Listed here: items and their measured IC50.

Known IC50 results, listed for orientation:
>  <compound>
Cn1ncc2cccc(NS(=O)(=O)c3cnn(-c4cc(N5CCOCC5)ccn4)c3)c21 [Compound I-103]

>  <IC50>
< 400 nM

$$$$
>  <compound>
[2H]C([2H])([2H])n1ncc2ccc(OC)c(NS(=O)(=O)c3cnn(-c4cc(C5CC5)ccn4)c3)c21 [Compound I-97]

>  <IC50>
< 400 nM

$$$$
>  <compound>
CCc1ccc2cnn(C)c2c1NS(=O)(=O)c1cnn(-c2ccnc(Cl)c2)c1 [Compound I-37]

>  <IC50>
< 400 nM

$$$$
>  <compound>
Cn1ncc2cccc(NS(=O)(=O)c3cnn(-c4cc(C(C)(C)F)ccn4)c3)c21 [Compound I-113]

>  <IC50>
< 400 nM

$$$$
>  <compound>
COc1ccc2cnn(C)c2c1NS(=O)(=O)c1cnn(-c2cc(C3(OC)CC(C)C3)ccn2)c1 (stereo not shown) [Compound I-142]

>  <IC50>
< 400 nM

$$$$
>  <compound>
CN1CCC(n2cc(S(=O)(=O)Nc3cccc4cnn(C)c34)cn2)CC1 [Compound I-345]

>  <IC50>
400 to 1000 nM

$$$$

Challenge: Record request: IC50 value, item COc1ccc2cnn(C)c2c1NS(=O)(=O)c1cnn(-c2cc(C3(OC)CC(C)C3)ccn2)c1 (single isomer, unassigned) [Compound I-364]
Response given: < 400 nM

Challenge: Find the recorded IC50 belonging to CN1CC[C@@H](n2cc(S(=O)(=O)Nc3cccc4cnn(C)c34)cn2)CC1=O [Compound I-414] and report it.
Response given: > 2500 nM

Challenge: I'd like to know its IC50. The compound in question is CC[C@H](OC)c1ccnc(-n2cc(S(=O)(=O)Nc3c(OC)ccc4cnn(C)c34)cn2)c1 [Compound I-317]
Response given: < 400 nM

Challenge: Dear colleague, I am looking for the recorded IC50 of the following compound: Cn1ncc2cccc(NS(=O)(=O)c3cnn(-c4cnn5c4COCC5)c3)c21 [Compound I-464]
Response given: 400 to 1000 nM

Challenge: Any idea what IC50 was measured for COc1ccc2cnn(C)c2c1NS(=O)(=O)c1cnn(-c2cc(N3CCC(F)(F)C3)ccn2)c1 [Compound I-435] ?
Response given: < 400 nM

---

Test system: NF-kB reporter in Jurkat cells
Assay: NF-kB reporter assay in Jurkat cells stimulated with aCD3/aCD28/PMA
Format: cell-based
Details: Homo sapiens; Jurkat cells, 1 hr compound pre-incubation, aCD3/aCD28/PMA stimulation 4 hr, One-Glo readout; read-out: NF-kB Reporter Assay IC50
List of IC50 values.

Previously resolved entries follow.
>  <molecule>
COc1ccc2cnn(C)c2c1NS(=O)(=O)c1cnn(-c2cc(C(F)F)ccn2)c1 [Compound I-133]

>  <system_under_test>
NF-kB reporter in Jurkat cells

>  <IC50>
< 400 nM

$$$$
>  <molecule>
Cn1ncc2cccc(NS(=O)(=O)c3cnn(-c4ccnc(C5CC5)c4)c3)c21 [Compound I-75]

>  <system_under_test>
NF-kB reporter in Jurkat cells

>  <IC50>
400 to 1000 nM

$$$$
>  <molecule>
Cn1ncc2cccc(NS(=O)(=O)c3cnn(-c4cnn5c4COCCC5)c3)c21 [Compound I-447]

>  <system_under_test>
NF-kB reporter in Jurkat cells

>  <IC50>
400 to 1000 nM

$$$$

Challenge: Entry [2H]C([2H])([2H])Oc1ccc2cnn(C)c2c1NS(=O)(=O)c1cnn(-c2cc(C3CC3)ccn2)c1 [Compound I-96] has what IC50?
Response given: < 400 nM

---

Tested on: NF-kB reporter in Jurkat cells
Assay: NF-kB reporter assay in Jurkat cells stimulated with aCD3/aCD28/PMA
Type: cell-based
Conditions: Homo sapiens; Jurkat cells, 1 hr compound pre-incubation, aCD3/aCD28/PMA stimulation 4 hr, One-Glo readout; read-out: NF-kB Reporter Assay IC50
pIC50: −log10 of the molar value.
endpoint_name: pIC50

>  <compound>
COC[C@H](OC)c1ccnc(-n2cc(S(=O)(=O)Nc3cccc4cnn(C)c34)cn2)c1

>  <pIC50>
6.00 to 6.40

$$$$
>  <compound>
C[C@H]1CN(C)C(=O)N1c1ccnc(-n2cc(S(=O)(=O)Nc3cccc4cnn(C)c34)cn2)c1

>  <pIC50>
> 6.40

$$$$
>  <compound>
Cn1ncc2cccc(NS(=O)(=O)c3cnn(-c4cc(C5CCOC5)ccn4)c3)c21 (stereo not drawn)

>  <pIC50>
> 6.40

$$$$

Challenge: Fill in: pIC50 of Cn1ncc2cccc(NS(=O)(=O)c3cnn(-c4cc(N5CC(C)(F)C5)ccn4)c3)c21 is ___
Response given: > 6.40

Challenge: Find the recorded pIC50 belonging to C[C@@H]1CN(C)C(=O)N1c1ccnc(-n2cc(S(=O)(=O)Nc3cccc4cnn(C)c34)cn2)c1 and report it.
Response given: > 6.40

Challenge: Look up pIC50: COc1ncc2cnn(C)c2c1NS(=O)(=O)c1cnn(-c2cc(N3CCC(C)(C)C3)ccn2)c1
Response given: > 6.40

Challenge: Fill in: pIC50 of COc1cc(NS(=O)(=O)c2cnn(-c3ccnc(C(F)(F)F)c3)c2)c2c(cnn2C)c1 is ___
Response given: < 5.60

Challenge: Given the entry Cc1n[nH]c2cccc(N(C)S(=O)(=O)c3cnn(-c4ccnc(C(F)(F)F)c4)c3)c12 , report its measured pIC50.
Response given: < 5.60

Challenge: Looking for the measured pIC50 of COc1ccc2cnn(C)c2c1NS(=O)(=O)c1cnn(-c2cc(N3CC(C)(C)C3)ccn2)c1 , can you help?
Response given: > 6.40

---

Tested on: NF-kB reporter in Jurkat cells
Experiment: NF-kB reporter assay in Jurkat cells stimulated with aCD3/aCD28/PMA
Format: cell-based
Conditions: read-out: NF-kB Reporter Assay IC50; Jurkat cells, 1 hr compound pre-incubation, aCD3/aCD28/PMA stimulation 4 hr, One-Glo readout
pIC50: −log10 of the molar value.
endpoint_name: pIC50

Challenge: Provide value of pIC50 for this record tested with NF-kB reporter in Jurkat cells: CCC(O)c1ccnc(-n2cc(S(=O)(=O)Nc3c(OC)ccc4cnn(C)c34)cn2)c1 (single isomer, unassigned)
Response given: > 6.40

---

Avi-tagged FL MALT-1 (Homo sapiens (Human), UniProt Q9UDY8) measurements of IC50, listed per entry.
Sequence (Q9UDY8 whole entry): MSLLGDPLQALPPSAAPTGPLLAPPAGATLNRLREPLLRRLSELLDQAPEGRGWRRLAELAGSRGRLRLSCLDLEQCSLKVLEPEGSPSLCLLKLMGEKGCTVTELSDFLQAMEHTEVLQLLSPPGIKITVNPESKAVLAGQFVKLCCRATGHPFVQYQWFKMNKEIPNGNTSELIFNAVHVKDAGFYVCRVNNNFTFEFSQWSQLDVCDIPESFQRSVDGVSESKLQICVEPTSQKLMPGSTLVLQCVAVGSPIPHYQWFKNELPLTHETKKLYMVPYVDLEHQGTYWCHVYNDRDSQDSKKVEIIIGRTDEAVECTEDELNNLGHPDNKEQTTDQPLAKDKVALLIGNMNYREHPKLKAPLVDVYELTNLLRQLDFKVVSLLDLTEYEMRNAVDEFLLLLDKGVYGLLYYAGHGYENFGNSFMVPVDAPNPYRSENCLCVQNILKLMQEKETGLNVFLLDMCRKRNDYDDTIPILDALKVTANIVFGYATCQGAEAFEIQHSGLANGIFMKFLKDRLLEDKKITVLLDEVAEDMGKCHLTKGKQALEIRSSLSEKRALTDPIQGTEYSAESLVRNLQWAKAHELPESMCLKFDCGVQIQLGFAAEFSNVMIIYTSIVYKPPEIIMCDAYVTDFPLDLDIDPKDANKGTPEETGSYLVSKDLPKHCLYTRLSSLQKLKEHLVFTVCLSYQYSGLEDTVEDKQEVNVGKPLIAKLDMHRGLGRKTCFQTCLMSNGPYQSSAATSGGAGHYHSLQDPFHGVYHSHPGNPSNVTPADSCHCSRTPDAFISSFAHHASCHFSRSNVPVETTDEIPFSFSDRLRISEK

Before answering, review these 3 worked examples.
>  <test_smiles>
[2H]c1cnc(-n2cc(S(=O)(=O)Nc3cccc4cnn(C([2H])([2H])[2H])c34)cn2)cc1C(F)(F)F

>  <reported_result>
≤ 0.4 µM

$$$$
>  <test_smiles>
COc1ccc2cnn(C)c2c1NS(=O)(=O)c1cnn(-c2cc(Cl)ccn2)c1

>  <reported_result>
≤ 0.4 µM

$$$$
>  <test_smiles>
Cn1ncc2cccc(NS(=O)(=O)c3cnn(-c4cc(C5(C#N)CCC5)ccn4)c3)c21

>  <reported_result>
> 2.5 µM

$$$$

Read the next record carefully.
Challenge: Dear colleague, I am looking for the recorded IC50 of the following compound: CC1CCN(c2ccnc(-n3cc(S(=O)(=O)Nc4cccc5cnn(C)c45)cn3)c2)CC1
Response given: > 2.5 µM
